- EXPERIMENT NOTES: chemical genetic growth profiling, strain panel (AID 1159580);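 also: tested at 20 µM; growth read once vehicle control cultures reached saturation at 30 °C; 1 = growth at the plate median or of vehicle wells; lower values mean less growth of the strain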
- PROTOCOL CONDITIONS: S. cerevisiae deletion strains, growth OD, locus YPL078C, strain atp4
Out of some 5,500 compounds screened, about 2,000 (36%) were called active. Roughly 18% stayed inconclusive and do not appear here. Rule as the data show it: active = normalized growth mostly below about 0.91 (no sharp cut-off); inconclusive = no clear call, values can overlap the other calls; inactive = mostly above about 0.92. This is one part of the list.
Write down the outcome that applies. Available outcomes: active, inactive

# lookup: test call for `O=C(O)/C=C/C=C/c1ccccc1` active

# lookup: test call for O=C(O)CCCCC1CCSS1 (stereo not given) inactive

# lookup: test call for `C/C=C/c1ccc2c(c1)OCO2` inactive

# lookup: test call for CO[C@H]1/C=C/O[C@@]2(C)Oc3c(C)c(O)c4c(O)c(c5c(nc6cc(C)ccn65)c4c3C2=O)NC(=O)/C(C)=C\C=C\[C@H](C)[C@H](O)[C@@H](C)C(O)[C@@H](C)[C@H](OC(C)=O)[C@@H]1C (stereo not given in full) inactive

# lookup: test call for CCCCC(CC)CN1CN(CC(CC)CCCC)CC(C)(N)C1 (stereo not given) active

# lookup: test call for `C=C(CC)C(=O)c1ccc(OCC(=O)O)c(Cl)c1Cl` inactive

# lookup: test call for `Oc1c(I)cc(I)c2cccnc12` active

# lookup: test call for CC(=O)c1c(O)c(C)c(O)c2c1OC1=CC(=O)C(C(C)=O)C(=O)C12C (stereo not given) active

# lookup: test call for `Nc1ccc(S(=O)(=O)Nc2ccc(Cl)nn2)cc1` inactive

# lookup: test call for `OC[C@@H](O)[C@@H](O[C@@H]1O[C@H](CO)[C@@H](O)[C@H](O)[C@H]1O)[C@H](O)[C@@H](O)CO` inactive

----------
- EXPERIMENT NOTES: chemical genetic growth profiling, strain panel (AID 1159580);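 also: tested at 20 µM; growth read once vehicle control cultures reached saturation at 30 °C; 1 = growth at the plate median or of vehicle wells; lower values mean less growth of the strain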
- PROTOCOL CONDITIONS: S. cerevisiae deletion strains, growth OD, locus YLR262C, strain YPT6, active compounds read low
The whole screen tested about 5,500 compounds, of which about 2,000 (36%) were called active. Roughly 18% stayed inconclusive and do not appear here. The list shows a part of the results.
Friendly reminder: normalized growth below 1 is criterion met, at or above is criterion not met.

Given `Nc1ncnc2c1ncn2[C@@H]1O[C@H](CO)[C@@H](O)[C@H]1O` , is recorded normalized growth strictly lower than 1? criterion met

Given `O=C(/C=N\Nc1ccccc1)Nc1ccccc1C(=O)O` , is recorded normalized growth strictly lower than 1? criterion met

Given `CN[C@H](CC(=O)O)C(=O)O` , is recorded normalized growth strictly lower than 1? criterion met

Given `O=C(NC(=S)Nc1ccccn1)c1ccccc1` , is recorded normalized growth strictly lower than 1? criterion met

Given `C=C(CC)C(=O)c1ccc(OCC(=O)O)c(Cl)c1Cl` , is recorded normalized growth strictly lower than 1? criterion met

Given Nc1nc2c(ncn2C2C[C@H](O)[C@@H](CO)O2)c(=O)[nH]1 (stereo partly drawn) , is recorded normalized growth strictly lower than 1? criterion not met

Given `Nc1ccccc1SCC(=O)Nc1c(F)cccc1F` , is recorded normalized growth strictly lower than 1? criterion met

Given `c1ccc2c(c1)CCc1c-2[nH]c2ccccc12` , is recorded normalized growth strictly lower than 1? criterion met

Given `CCCc1occc(=O)c1/C=C/O` , is recorded normalized growth strictly lower than 1? criterion met

Given C=CC(C1=CC(=O)C(OC)=CC1=O)c1ccc(OC)cc1 (stereo not drawn) , is recorded normalized growth strictly lower than 1? criterion met

Given CSCCC(NC=O)C(=O)NC(C)C(=O)O (stereo not drawn) , is recorded normalized growth strictly lower than 1? criterion not met

Given CC(C)NCC(O)c1ccc2ccccc2c1 (stereo not drawn) , is recorded normalized growth strictly lower than 1? criterion not met

Given `CC(C)c1ccc(NC(=S)NC(=O)c2ccc(C(F)(F)F)cc2)cc1` , is recorded normalized growth strictly lower than 1? criterion not met

Given `COC(=O)Oc1ccccc1C(=O)O` , is recorded normalized growth strictly lower than 1? criterion not met

Given `N#Cc1c(N)sc2c1CCCCC2` , is recorded normalized growth strictly lower than 1? criterion met

Given `CCCc1cc(Br)c(-n2cccc2)c(Br)c1` , is recorded normalized growth strictly lower than 1? criterion not met

Given O=c1[nH]c(=O)n(C2C[C@@H](O)[C@@H](CO)O2)cc1F (stereo partly drawn) , is recorded normalized growth strictly lower than 1? criterion not met

Given CC1(C)C(C(Cl)Cl)C2(Cl)C(Cl)C(Cl)C1(Cl)C2(Cl)Cl (stereo not drawn) , is recorded normalized growth strictly lower than 1? criterion met

Given `CCCCC1(COC(=O)CCC(=O)O)C(=O)N(c2ccccc2)N(c2ccccc2)C1=O` , is recorded normalized growth strictly lower than 1? criterion met

Given `Nc1ccc(S(=O)(=O)Nc2ccccn2)cc1` , is recorded normalized growth strictly lower than 1? criterion not met

Given CC(C)(C)NCC(O)c1ccccc1Cl (stereo not drawn) , is recorded normalized growth strictly lower than 1? criterion met

Given `Cc1cc(C)c(I)c(C)c1` , is recorded normalized growth strictly lower than 1? criterion not met

Given `Nc1ccc(S(=O)(=O)Nc2ccc(Cl)nn2)cc1` , is recorded normalized growth strictly lower than 1? criterion not met

Given `CCSc1nnc(N)s1` , is recorded normalized growth strictly lower than 1? criterion not met

Given `CCCCC1=NC2(CCCC2)C(=O)N1Cc1ccc(-c2ccccc2-c2nn[nH]n2)cc1` , is recorded normalized growth strictly lower than 1? criterion met

----------
- EXPERIMENT NOTES: chemical genetic growth profiling, strain panel (AID 1159580);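 also: tested at 20 µM; growth read once vehicle control cultures reached saturation at 30 °C; 1 = growth at the plate median or of vehicle wells; lower values mean less growth of the strain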
- PROTOCOL CONDITIONS: S. cerevisiae strains, growth OD, strain wild type, active compounds read low
The whole screen tested about 5,500 compounds, of which about 2,000 (36%) were called active. Inconclusive results (about 18%) are left out. This is one part of the list.
MEASURED PARAMETER: normalized growth
Respond with the number and no other words.

May I ask what normalized growth has been recorded for `O=C(O)CF` ? 0.999

May I ask what normalized growth has been recorded for `Nc1ncnc2c1ncn2[C@@H]1O[C@H](CO)[C@@H](O)[C@H]1O` ? 0.989

May I ask what normalized growth has been recorded for CCCC(C)C1(CC)C(=O)N=C(S)NC1=O (stereo unspecified) ? 1.01

May I ask what normalized growth has been recorded for `COC(C)(C)CCC[C@H](C)C/C=C/C(C)=C/C(=O)OC(C)C` ? 1.01

May I ask what normalized growth has been recorded for CN1C(CC(=O)c2ccccc2)CCCC1CC(O)c1ccccc1 (stereo unspecified) ? 1.01

May I ask what normalized growth has been recorded for O=c1[nH]c(=O)n(C2C[C@@H](O)[C@@H](CO)O2)cc1F (stereo partly specified) ? 1.01

May I ask what normalized growth has been recorded for `O=[N+]([O-])c1ccc(O)c([N+](=O)[O-])c1` ? 0.799

May I ask what normalized growth has been recorded for CCCC(C)C1(CC)C(=O)NC(=O)NC1=O (stereo unspecified) ? 1.01

May I ask what normalized growth has been recorded for `COc1cc2c(c(OC)c1OC)-c1ccc(O)c(=O)cc1[C@@H](NC(C)=O)CC2` ? 0.285

May I ask what normalized growth has been recorded for `C#CCOc1c(Cl)cccc1Cl` ? 0.999

May I ask what normalized growth has been recorded for `O=[N+]([O-])c1cc([As](=O)(O)O)ccc1O` ? 0.997

May I ask what normalized growth has been recorded for Nc1ncnc2c1ncn2C1O[C@H](COP(=O)(O)O)[C@@H](O)[C@H]1O (stereo partly specified) ? 1.02

May I ask what normalized growth has been recorded for O=C1C=CC2=C3c4cc(O)c(O)cc4CC3(O)COC2=C1O (stereo unspecified) ? 0.814

May I ask what normalized growth has been recorded for CC(C)=CCC[C@](C)(O)C1CC=C(C)CC1 (stereo partly specified) ? 1.02

May I ask what normalized growth has been recorded for `NC(=NS(=O)(=O)c1cc(C(F)(F)F)cc(C(F)(F)F)c1)c1cccs1` ? 0.978

May I ask what normalized growth has been recorded for `CC(C)N(C(=O)SCC(Cl)=C(Cl)Cl)C(C)C` ? 1.01

May I ask what normalized growth has been recorded for `CCOP(=S)(OCC)SCn1c(=O)oc2cc(Cl)ccc21` ? 0.993

May I ask what normalized growth has been recorded for `Oc1c(Cl)cc(Cl)c2cccnc12` ? 0.0471

May I ask what normalized growth has been recorded for C=CC(C)(O)CC/C=C(\C)CCC=C(C)C (stereo unspecified) ? 0.924

May I ask what normalized growth has been recorded for `CC(=O)NCCCCCC(=O)O` ? 1.01

May I ask what normalized growth has been recorded for `Nc1nc2ncc(C(=O)O)nc2c(=O)[nH]1` ? 1.01

May I ask what normalized growth has been recorded for CSCCC(NC=O)C(=O)NC(C)C(=O)O (stereo unspecified) ? 0.996

May I ask what normalized growth has been recorded for COc1ccccc1OCCNCC(O)COc1cccc2[nH]c3ccccc3c12 (stereo unspecified) ? 0.984

May I ask what normalized growth has been recorded for `CCCc1cc(Br)c(-n2cccc2)c(Br)c1` ? 1.03

May I ask what normalized growth has been recorded for `Oc1c(I)cc(I)c2cccnc12` ? 0.0715

May I ask what normalized growth has been recorded for `NC(N)=NC(N)=Nc1cc(C(F)(F)F)cc(C(F)(F)F)c1` ? 1.01
